Data provenance: patent US20240294489A1

Measured IC50 of individual entries
- Test system: NOMO-1
- protocol.text: Cell viability, additional cell lines (CellTiter-Glo), NOMO-1
- Type: cell-based
- conditions.used: Homo sapiens, NOMO-1, 72 h; read-out: Absolute IC50
metric.name: IC50

molecule="NCc1ccc2c(c1)CN(C1CCC(=O)NC1=O)C2=O (centres unmarked)" system=NOMO-1 assay_value="> 30000 nM"
molecule="O=C1CCC(N2Cc3cc(CNC(=O)C(F)(F)c4ccc(Cl)cc4)ccc3C2=O)C(=O)N1 (centres unmarked) [CC-90009, reference compound]" system=NOMO-1 assay_value="40 nM"

---

- System: KG-1
- protocol.text: Cell viability, additional cell lines (CellTiter-Glo), KG-1
- Assay type: cell-based
- conditions.used: Homo sapiens, KG-1, 72 h; read-out: Absolute IC50
pIC50: −log10 of the molar value.
metric.name: pIC50

compound="NCc1ccc2c(c1)CN(C1CCC(=O)NC1=O)C2=O (stereo not shown)" assay_value="≥ 7.00"

---

- Tested on: MOLT-4
- protocol.text: Cell viability, additional cell lines (CellTiter-Glo), MOLT-4
- Type: cell-based
- conditions.used: Homo sapiens, MOLT-4, 72 h; read-out: Absolute IC50
pIC50: −log10 of the molar value.
metric.name: pIC50

compound="NCc1ccc2c(c1)CN(C1CCC(=O)NC1=O)C2=O (stereo not shown)" assay_value="≤ 4.52"

---

- Tested on: H929 cells
- protocol.text: Cell viability CTG assay, H929
- Format: cell-based
- conditions.used: Homo sapiens, NCI-H929; H929, 72 h, 0.001-50 μM, numeric values; read-out: Geomean absolute IC50 by molecule, 72 H
metric.name: IC50 (nM)

compound="Nc1cccc2c1C(=O)N(C1CCC(=O)NC1=O)C2=O (centres unmarked) [Pomalidomide, pomalidomide, reference compound]" metric_name=IC50 units_of_measure=nM assay_value=61
compound="O=C1CC[C@@H](N2Cc3c(OCc4ccc(CN5CCOCC5)cc4)cccc3C2=O)C(=O)N1 [CC-220, reference compound]" metric_name=IC50 units_of_measure=nM assay_value=4
compound="Nc1cccc2c1CN(C1CCC(=O)NC1=O)C2=O (centres unmarked) [Lenalidomide, lenalidomide, reference compound]" metric_name=IC50 units_of_measure=nM assay_value=433
compound="O=C1CCC(N2Cc3cc(CNC(=O)C(F)(F)c4ccc(Cl)cc4)ccc3C2=O)C(=O)N1 (centres unmarked) [CC-90009, reference compound]" metric_name=IC50 units_of_measure=nM assay_value=189
compound="Cc1nc2cccc(N)c2c(=O)n1C1CCC(=O)NC1=O (centres unmarked) [CC-122, reference compound]" metric_name=IC50 units_of_measure=nM assay_value=72

---

- Tested on: U-266
- protocol.text: Cell viability, additional cell lines (CellTiter-Glo), U-266
- Assay type: cell-based
- conditions.used: Homo sapiens, U-266, 72 h; read-out: Absolute IC50
Measured IC50 of individual entries
metric.name: IC50 (µM)

molecule="NCc1ccc2c(c1)CN(C1CCC(=O)NC1=O)C2=O (centres unmarked)" system=U-266 metric_name=IC50 qualifier_symbol=> assay_value=30
molecule="O=C1CCC(N2Cc3cc(CNC(=O)C(F)(F)c4ccc(Cl)cc4)ccc3C2=O)C(=O)N1 (centres unmarked) [CC-90009, reference compound]" system=U-266 metric_name=IC50 qualifier_symbol== assay_value=0.056
